System: HCT-116 colon
Experiment: NCI tumour cell line growth inhibition, 48 h
Reported endpoint: TGI

# Compound, Endpoint result
rows = [
    ("CCOC(=O)c1nc2cc(C(F)(F)F)ccc2[n+]([O-])c1C", "> 100 µM"),
    ("CN(C)CCOc1ccc(-c2cc(-c3ccc4c(c3)CC/C4=N\\O)c(-c3ccncc3)o2)cc1", "4.5 µM"),
    ("COc1ccc(/C=C(/c2ccccc2)c2c(C)cc(C)c(/C(=C\\c3ccc(OC)cc3)c3ccccc3)c2N=Nc2cc(C)cc(C)c2)cc1", "> 87.8 µM"),
    ("COc1cc2cc(C(=O)N3CC(CCl)c4c3cc(O)c3ccccc43)[nH]c2c(OC)c1OC (configuration not stated)", "5.85 µM"),
    ("COc1cc(NC(C)CCCN)c2ncccc2c1Sc1ccc(Cl)cc1 (configuration not stated)", "3.27 µM"),
    ("Cc1cc(NS(=O)(=O)c2ccc(Nc3c4ccccc4nc4c(C(=O)Nc5ccc(S(=O)(=O)N=C(N)N)cc5)ccc(Cl)c34)cc2)no1", "> 100 µM"),
    ("COC(=O)C(=O)C(CC(=O)Nc1cccc(C(F)(F)F)c1)C(=O)OC (configuration not stated)", "> 100 µM"),
]
